Molecular target: GDP-bound KRAS protein (aa 1-169), containing both G12D and C118A amino acid substitutions (Homo sapiens (Human), UniProt P01116, C118A/G12D)
Sequence (P01116 other isoform, or with tags, fused parts or gaps G12D/C118A): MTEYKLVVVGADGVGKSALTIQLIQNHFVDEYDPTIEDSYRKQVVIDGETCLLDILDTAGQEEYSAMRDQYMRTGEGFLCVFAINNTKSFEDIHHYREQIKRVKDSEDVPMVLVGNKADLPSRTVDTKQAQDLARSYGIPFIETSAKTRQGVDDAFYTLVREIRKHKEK
Assay: KRAS G12D Coupled Nucleotide Exchange Assay
Assay type: biochemical
Conditions: read-out: KRAS G12D Coupled Exchange IC50
Each record is given Satisfied if its reported IC50 is strictly below 6 nM. Records at or above 6 nM are given Not satisfied.

>  <Molecule>
C#CCO[C@@H]1CN2CCC[C@@]2(COc2nc3c4cnc(c(F)c4n2)-c2c(c(Cl)cc4[nH]ncc24)CCCOC(=O)O[C@@H]2COCCN3C2)C1

>  <Qualitative label>
Not satisfied

$$$$
>  <Molecule>
O=C1OCCc2c(Cl)cc3[nH]ncc3c2-c2cc3nc(OC[C@@]45CCCN4C[C@H](F)C5)nc(c3cn2)N2CCC[C@]3(C2)C[C@H](C3)O1

>  <Qualitative label>
Not satisfied

$$$$
>  <Molecule>
CN1C(=O)CCCCc2c(Cl)cc3[nH]ncc3c2-c2ncc3c(nc(OC[C@@]45CCCN4C[C@H](F)C5)nc3c2F)N2CCOCC1C2 (mixture of isomers)

>  <Qualitative label>
Not satisfied

$$$$
>  <Molecule>
C[C@@]12CCCN(C1)c1nc(OC[C@@]34CCCN3C[C@H](F)C4)nc3c(F)c(ncc13)-c1cccc3ccc(F)c(c13)CCC(F)C(=O)N2 (mixture of isomers)

>  <Qualitative label>
Not satisfied

$$$$
>  <Molecule>
Cc1cc2[nH]ncc2c2c1CCCCOC[C@@H]1CCCN(C1)c1nc(OC[C@@]34CCCN3C[C@H](F)C4)nc3c(F)c-2ncc13 [Example 129, bis(2,2,2-trifluoroacetate)]

>  <Qualitative label>
Satisfied

$$$$
>  <Molecule>
Cc1cc2[nH]ncc2c2c1CCCCC(=O)OC1CC[C@@H]3CC[C@H]1N3c1nc(OC[C@@]34CCCN3C[C@H](F)C4)nc3c(F)c-2ncc13 (racemic)

>  <Qualitative label>
Not satisfied

$$$$
>  <Molecule>
Cc1c2ncc3c(nc(OC[C@@]45CCCN4C[C@H](F)C5)nc13)N1CCOC[C@H](C1)OC(=O)OCCCc1c(Cl)cc3[nH]ncc3c1-2 (atropisomer, axis not shown) [Example 342]

>  <Qualitative label>
Not satisfied

$$$$
>  <Molecule>
C[C@@]12COCCN(C1)c1nc(OC[C@@]34CCCN3C[C@H](F)C4)nc3c(F)c(ncc13)-c1cccc3ccc(F)c(c13)CCOC(=O)O2

>  <Qualitative label>
Satisfied

$$$$
>  <Molecule>
O=C1OC[C@H]2C[C@@H]2c2c(Cl)cc3[nH]ncc3c2-c2ncc3c(nc(OC[C@@]45CCCN4C[C@H](F)C5)nc3c2F)N2CCC[C@H](C2)O1 (mixture of isomers)

>  <Qualitative label>
Satisfied

$$$$
>  <Molecule>
Cc1cc2[nH]ncc2c2c1C[C@H](C)CCOC[C@@H]1CCCN(C1)c1nc(OC[C@@]34CCCN3C[C@H](F)C4)nc3c(F)c-2ncc13

>  <Qualitative label>
Not satisfied

$$$$
>  <Molecule>
Fc1cc2[nH]ncc2c2c1CCCCOC[C@H]1CCCCN(C1)c1nc(OC[C@@]34CCCN3C[C@H](F)C4)nc3c(F)c-2ncc13

>  <Qualitative label>
Satisfied

$$$$
>  <Molecule>
Cc1cc2[nH]ncc2c2c1CCCC(=O)OCCC1CCCN(C1)c1nc(OC[C@@]34CCCN3C[C@H](F)C4)nc3c(F)c-2ncc13 (stereo partly drawn)

>  <Qualitative label>
Not satisfied

$$$$
>  <Molecule>
O=C1CCCc2c(F)ccc3cccc(c23)-c2ncc3c(nc(OC[C@@]45CCCN4C[C@H](F)C5)nc3c2F)N2CCC[C@H](C2)N1 [Example 68, 2,2,2-trifluoroacetate]

>  <Qualitative label>
Not satisfied

$$$$
>  <Molecule>
Fc1c2ncc3c(nc(OC[C@@]45CCCN4C[C@H](F)C5)nc13)N1CCC[C@H](C1)Cn1cc(nn1)CCc1c(Cl)cc3[nH]ncc3c1-2

>  <Qualitative label>
Not satisfied

$$$$
